List of melting point values.

> print(dat)
                                   compound  assay.readout       result
1  CC(C)(C)OC(=O)CC1(SN=O)C2CC3CC(C2)CC1C3 (stereo unspecified)  melting point  85 to 87 °C

Requested field: melting point. Item: CNC(=S)C1(c2cccnc2)CCCCS1 (stereo unspecified)
131 °C

Fill in: melting point of CC1(C)NC(=O)N(CC(CCS(=O)(=O)c2ccc(-c3ccc(C(F)(F)F)cc3)cc2)N(O)C=O)C1=O (stereo unspecified) is ___
125 °C

Returns the measured melting point for the input compound. Input: "Cc1ccn2c(C)c(-c3ccc4c(c3)NC(=O)CO4)nc2c1"
239 to 241 °C

Param item = "Cn1cc(C(=O)NCc2ccc(Cl)cc2)c(=O)c2cc(CO)ccc21" ; retrieve measured melting point.
168 to 170 °C

melting point lookup needed for COc1cc2c(cc1OC)C(Oc1ccccc1)CN(NC(=O)c1cc(Cl)cc(Cl)c1)CC2 (stereo unspecified) , thanks.
184 to 185 °C

Field request: melting point | item: "COc1ccc(C2=CNC(=O)NC2)cc1OC1Cc2ccccc2C1"
198 to 201 °C

Endpoint output: melting point of "Cc1ccc(C(=O)Nc2cc(N3CCN(C)CC3)cc(C(F)(F)F)c2)cc1Nc1nccc(-c2cccnc2)n1" . Value?
192 to 194 °C

melting point lookup needed for "CCCc1c(C=O)ncn1S(=O)(=O)N(C)C" , thanks.
57 to 58 °C

Using the record for CN(C)Cc1c(-c2ccccc2)nc2c(C(=O)NC(C#N)c3cccc(F)c3)cccn12 (stereo unspecified) , report its melting point.
123 to 124 °C

What does the record list as melting point for "O=c1nc(-c2cccc(SCCCc3ccccc3)n2)sc2ccccc12" ?
192 to 194 °C

Item COc1cccc(C2=C(CC(C)N3CCCCC3)C(=O)N(C)CCC2)c1 (stereo unspecified) has what recorded melting point?
101 to 103 °C

Need melting point, item "O=Cc1scc2c3ccccc3c3ccccc3c12"
198 to 199 °C

# get_value(readout='melting point', item= "CCCCCCCc1cc2cn(C(CC)CC)c(=O)nc2o1" )
128 to 130 °C

Form field: reported melting point of "COc1ccc(/C=C/c2ccc3nc(C(=O)N[C@@H](Cc4ccc(OCc5ccccc5)cc4)C(=O)O)cn3c2)cc1"
262 to 263 °C

What melting point value was documented for this compound, Cc1ccc2c(c1O)N=CC1CCCN1C2=O (stereo unspecified) ?
148 to 150 °C

What measured melting point goes with "COc1cc(CO)cnc1Cl" ?
60 to 63 °C

What does the record list as melting point for "CON=C1CC(=NOC)c2ccccc2-c2ccccc21" ?
130 °C

What melting point value was documented for this compound, "Cc1cc(-n2ccnc2)c2cccc(OCc3c(Cl)ccc(S(=O)(=O)N4CCC[C@H]4CO)c3Cl)c2n1" ?
76 °C

Field request: melting point | item: "COc1cc2nc(C)nc(N3CCN(C(=O)Nc4ccc(Oc5ccccc5)cc4)CC3)c2cc1OC"
146 to 147 °C

Quick check: melting point of "NC(=O)c1c(N)cccc1OCCO" ?
149 to 151 °C

====

assay_readout: melting point

> print(dat)
                         chemical.structure         result
1  CNC(=O)C1(Nc2nc(Nc3cc4c(cc3OC)CCN(CC(=O)N(C)C)CC4)ncc2Cl)CC1  118 to 125 °C
2  O=[N+]([O-])c1ccc2c(c1)CCN(Cc1ccc3cc([N+](=O)[O-])ccc3n1)CC2  127 to 130 °C
3  O=C(Nc1ccc(-n2nc(C(F)(F)F)cc2OC(F)F)cc1)c1cccnc1F  149 to 150 °C

Turning now to a further molecule:
Please report the recorded melting point for "CC(=O)Oc1ccc(C(=O)Oc2ccc(OC(=O)c3ccc(OC(C)=O)cc3)cc2)cc1" .
185 to 186 °C

====

assay_readout: melting point

Examples with answers:
> print(dat)
                                   compound  assay.readout         result
1              CCCCc1ccc(CCCCC(N)(CO)CO)cc1  melting point    92 to 94 °C
2         O=C(c1ccc(Br)cc1)c1cccc2cc[nH]c12  melting point  162 to 164 °C
3  CN1CC=C(c2c[nH]c3ccc(C4CN=CS4)cc23)CC1 (stereo not given)  melting point  260 to 263 °C
4  O=C(N[C@H]1CCN(CCc2ccc(F)cc2)C1)C(c1ccccc1F)c1ccccc1F  melting point  107 to 108 °C
5  CC(C)Oc1cc(-n2c(=O)c(F)c(CF)n(C)c2=O)c(F)cc1Cl  melting point    79 to 81 °C

Entry N#Cc1ccc(COc2ccc(-c3ccc(C4Cc5ccccc5C(O)C4)cc3)cc2)cc1 (stereo not given) : reported melting point = ?
172 °C

Find the recorded melting point belonging to "O=[N+]([O-])c1cccc(C2=NCc3n[nH]nc3-c3ccccc32)c1" and report it.
223 to 225 °C

For the compound shown here, O=c1[nH]c2cc(F)c(NCC3CCCCO3)cc2o1 (stereo not given) , give the reported melting point.
185 to 186 °C

Look up melting point for this compound: "CN(CCc1ccncc1)C(=O)CCSc1cc(C(C)(C)C)c(O)c(C(C)(C)C)c1"
129 to 132 °C

GET /values?readout=melting point&item= "O=C(NCc1ccc(Cl)cc1)c1cn2c(CCO)cc3cc(CC4CCOCC4)cc(c1=O)c32"
204 to 206 °C

====

The molecules listed here are annotated with their melting point.

Worked examples, 10 molecules total:
> print(dat)
                                    molecule  assay.readout         result
 1  COc1ccc(-c2nc(C(F)F)oc2-c2ccc(OCCO)cc2)cc1  melting point  114 to 116 °C
 2  CCC(=O)Nc1c(C)c(C)c2c(c1C)C(c1ccc(C(C)C)cc1)CO2 (centres undefined)  melting point  164 to 165 °C
 3  CCOC(=O)CCCC1(CCCC(=O)OCC)CC(=O)c2ccc(O)cc2O1  melting point  108 to 110 °C
 4  CC1(n2ncc(-c3ccc(S(C)(=O)=O)cc3)c(-c3ccc(F)cc3)c2=O)CCCC1  melting point  107 to 110 °C
 5  NC(=O)c1nc(-c2cccc(O)c2)nc2c1[nH]c(=O)n2C1CCc2ccccc21 (centres undefined)  melting point  341 to 343 °C
 6  CC(C)(C)OC(=O)Cn1cc(C[C@@H](N)C(=O)O)c2ccccc21  melting point         260 °C
 7  CCOCC1(C)CCCSc2cc(C#Cc3ccc(C(=O)O)cc3)ccc21 (centres undefined)  melting point  154 to 155 °C
 8  CC(=O)NC[C@H]1CN(c2ccc(C3=CCN(c4nnc(C)s4)CC3)c(F)c2)C(=O)O1  melting point  193 to 195 °C
 9  CS(=O)(=O)c1ccc(-c2nc(C(F)(F)F)nc(NN)c2-c2ccc(F)cc2)cc1  melting point  286 to 290 °C
10                    O=CC=CC=CC=CC=Cc1ccsc1  melting point  156 to 158 °C

Quick one: melting point of CCOC(=O)N1CCN(c2ccc(N3CC(CNC(C)=O)OC3=O)cc2F)CC1 (centres undefined) ?
224 to 226 °C

Give the measured melting point of Cc1nc2cccc(N)c2c(=O)n1C1CCC(=O)NC1=O (centres undefined) .
293 to 295 °C

Name the reported melting point value associated with the molecule CCOC(=O)C1=C(C)NC(C=O)=C(C(=O)OCC)C1c1cccc([N+](=O)[O-])c1 (centres undefined)
130 to 133 °C

Recorded melting point for C#CCNC(=O)c1nn(-c2c(Cl)cc(C(F)(F)F)cc2Cl)c(N)c1S(=O)C(F)(F)F (centres undefined) , please?
207 °C

Which value of melting point has been reported for "COCOc1cccc2c(=O)[nH]c(CCCN(C)C)cc12" in the records?
110 to 112 °C

Which melting point is listed for "COc1cc2c(cc1C(F)(F)F)N(C(=O)Nc1ccc(Cl)c(-c3cccnc3)c1)CC2" ?
210 to 213 °C

Look up melting point for this molecule: CC(C)(C)OC(=O)N1CCCC(c2nc(-c3ccncc3)c(-c3ccc(F)cc3)[nH]2)C1 (centres undefined)
193 to 194 °C

Bench note: what melting point did "CCOC(=O)c1c(Cn2cncn2)nc2cc(OC)c(OC)cc2c1-c1ccc(OC)cc1" show?
150 to 151 °C

Given "CCOC(=O)c1cnn(-c2c(Cl)cc(C(F)(F)F)cc2Cl)c1" , state its recorded melting point.
57 to 59 °C

====

The following molecules are listed with their measured melting point values.

> print(dat)
                                   molecule         result
1    CC(=O)NCCOc1cc(N)c(Cl)cc1C(=O)NCCN(C)C  143 to 145 °C
2  CC(CC(=O)O)c1ccc(-c2ccccc2F)cc1 (stereo not given)    87 to 88 °C
3  C[C@@H](n1cc(Cn2cncn2)nn1)[C@](O)(Cn1cncn1)c1ccc(F)cc1F  162 to 163 °C
4  COc1cc(COc2cccc3c2CN(C2CCC(=O)NC2=O)C3=O)ccc1OCCN(C)C (stereo not given)  190 to 192 °C
5     COc1ccccc1C1=Nc2ccc(C(=O)O)cc2C(=O)C1  290 to 294 °C
6      O=C(O)Cc1ccc(-c2ccc(-c3ccccc3)cc2)o1  196 to 210 °C
7  Cc1ccc(NC(=O)c2ccc(C[N+]3([O-])CC[N+](C)([O-])CC3)cc2)cc1Nc1nccc(-c2cccnc2)n1 (stereo not given)  242 to 244 °C
8       CCCCc1nc(=O)c2cc(C(C)(C)O)ccc2[nH]1  190 to 192 °C

Reported melting point for COC(=O)[C@]12CN(Cc3ccccc3)C[C@@H]1C(=O)CC[C@@]2(C)c1ccccc1 (racemic) : what is it?
115 °C

I'd like to know its melting point. The molecule in question is "O=C1c2ccccc2C(=O)c2c1c(Cl)c1ccc(Sc3ccccc3)cc1c2Cl"
160 to 163 °C

Quick one: melting point of "Fc1ccc(-c2ncn(C3CCNCC3)c2-c2ccnc(Oc3ccc(OCc4ccccc4)cc3)n2)cc1" ?
178 to 179 °C

// query melting point value for entry COc1ccc2nc(COc3ccc(CC4SC(=O)NC4=O)cc3)n(C)c2c1 (stereo not given)
267 to 271 °C

What value of melting point has been reported for the following molecule? "O=[N+]([O-])C=C1CN=C(c2ccccc2F)c2cc(Cl)ccc2N1"
170 to 172 °C

# get_value(readout='melting point', item= "Nc1ccc(-c2cccs2)c(C(=O)Nc2ccc3c(c2)CCC3)c1" )
62 to 67 °C

Item "Cc1c(-c2cccn2C)c(N2CC[C@H](N(C)C)C2)c2oc(C3CC3)nc2c1C#N" has what recorded melting point?
127 to 128 °C

Recorded melting point for CCNC(=O)NCCC1CCc2ccc3nc(C)oc3c21 (stereo not given) , please?
136 to 138 °C

Give the measured melting point of "C[C@@H]1[C@@H](C(=O)Cc2ccccc2)C(=O)N1OCc1ccccc1" .
97 to 99 °C

Look at this molecule and give its reported melting point. "Cc1cc(/C=C/C(=O)O)c(C)c([N+](=O)[O-])c1"
228 °C

Given "CC(=O)Nc1cc(O)c(C(=O)O)cc1NC(=N)N" , state its recorded melting point.
334 to 357 °C

Param item = CCOC(=O)C1CN(CC)c2nc3cc(F)c(F)cc3cc2C1=O (stereo not given) ; retrieve measured melting point.
152 °C
